# TARGET UNDER TEST: T1, ZIKV-VLP (Native Antigen Inc.) (Zika virus)
# T1 construct: also called Zika VLP; ZVLP
# METHOD: BLI binning on ZIKV-VLP; 1st mAb: 4G2
Below: a set of entries, each annotated with reported response of 2nd mAb.

{"BINDER": "anti-ZIKV antibody 11-3 (antibody, V domains shown, also called clone 11-3) VH: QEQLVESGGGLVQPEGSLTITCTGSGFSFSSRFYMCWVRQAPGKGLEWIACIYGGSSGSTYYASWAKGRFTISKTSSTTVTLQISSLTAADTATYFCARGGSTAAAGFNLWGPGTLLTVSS VL: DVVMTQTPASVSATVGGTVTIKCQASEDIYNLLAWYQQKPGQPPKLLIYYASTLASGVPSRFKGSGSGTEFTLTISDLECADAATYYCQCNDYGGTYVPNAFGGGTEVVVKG", "response of 2nd mAb": 0.75}
{"BINDER": "anti-ZIKV antibody 306-2 (antibody, V domains shown) VH: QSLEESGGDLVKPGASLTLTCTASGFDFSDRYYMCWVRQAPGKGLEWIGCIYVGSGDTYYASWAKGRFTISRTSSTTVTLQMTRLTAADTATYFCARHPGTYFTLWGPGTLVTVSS VL: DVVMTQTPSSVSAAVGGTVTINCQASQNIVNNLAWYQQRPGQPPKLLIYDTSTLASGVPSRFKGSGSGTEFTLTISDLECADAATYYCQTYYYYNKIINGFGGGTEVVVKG", "response of 2nd mAb": 0.64}
{"BINDER": "anti-ZIKV antibody 270-12 (antibody, V domains shown, also called clone 270-12) VH: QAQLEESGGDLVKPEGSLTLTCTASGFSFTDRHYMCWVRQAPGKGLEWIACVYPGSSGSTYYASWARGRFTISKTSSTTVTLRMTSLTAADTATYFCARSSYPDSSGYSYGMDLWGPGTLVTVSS VL: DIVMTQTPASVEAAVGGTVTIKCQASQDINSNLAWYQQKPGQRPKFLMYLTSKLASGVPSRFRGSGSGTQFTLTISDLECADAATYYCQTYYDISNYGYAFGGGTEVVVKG", "response of 2nd mAb": 0.91}

Q: Fill in the blank: the reported response of 2nd mAb of anti-ZIKV antibody 289-3 (antibody, V domains shown, also called clone 289-3; subclone 289-3) VH: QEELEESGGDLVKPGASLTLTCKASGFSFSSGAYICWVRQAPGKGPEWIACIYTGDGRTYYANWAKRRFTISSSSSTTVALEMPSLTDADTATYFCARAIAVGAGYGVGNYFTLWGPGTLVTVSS VL: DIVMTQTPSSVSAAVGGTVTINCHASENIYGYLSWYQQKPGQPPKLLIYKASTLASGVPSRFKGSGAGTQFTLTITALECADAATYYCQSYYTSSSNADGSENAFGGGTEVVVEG is ____.
Result: 1.04

Q: Also anti-ZIKV antibody 242-3 (antibody, V domains shown, also called clone 242-3) VH: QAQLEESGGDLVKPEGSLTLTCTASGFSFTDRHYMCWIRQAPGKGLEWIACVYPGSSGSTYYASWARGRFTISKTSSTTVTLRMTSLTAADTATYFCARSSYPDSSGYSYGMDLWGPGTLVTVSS VL: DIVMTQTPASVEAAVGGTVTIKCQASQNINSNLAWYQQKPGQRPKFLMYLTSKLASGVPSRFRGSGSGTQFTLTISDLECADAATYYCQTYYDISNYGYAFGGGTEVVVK ?
Result: 0.93

Q: Then anti-ZIKV antibody 78-2 (antibody, V domains shown, also called clone 78-2) VH: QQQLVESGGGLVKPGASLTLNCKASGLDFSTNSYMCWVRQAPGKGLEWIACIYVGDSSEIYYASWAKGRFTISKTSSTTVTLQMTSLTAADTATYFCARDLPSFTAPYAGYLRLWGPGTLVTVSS VL: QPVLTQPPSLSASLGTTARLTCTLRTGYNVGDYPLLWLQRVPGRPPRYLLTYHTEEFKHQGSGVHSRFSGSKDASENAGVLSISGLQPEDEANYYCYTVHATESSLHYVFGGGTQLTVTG ?
Result: 0.52

The origin of these recorded values is patent US20220332800A1.
